Experiment: NCATS anti-infectives library activity on the primary C. elegans qHTS viability assay (AID 1745855)
Conditions: C. elegans worm area imaging, day 7; series mostly up to 41.8 µM
Procedure: Assay Development and Screening Technology Laboratory (ADST) National Center for Advancing Translational Sciences (NCATS), Rockville, MD National Institute of Health (NIH), Bethesda, Maryland […] 1. […] P. (2006) Quantitative high-throughput screening: A titration-based approach that efficiently identifies biological activities in large chemical libraries, P Natl Acad Sci USA 103, 11473-11478. […] SEQUENCE No. (e.g., 1, 2, 3, etc.); […] (e.g., C. elegans, Compounds, Incubation, Read, etc.); VALUE and DESCRIPTION. […]
Inconclusive results are not listed. Calls of active or inactive are those of the source. Calls come from the whole dose curve.
Respond with a class label; see 1 for active, -1 for inactive

A selection of reference data follows.
CCC[C@H](N[C@H]1CCc2cc(F)cc(F)c2C1)C(=O)Nc1cn(C(C)(C)CNCC(C)(C)C)cn1; -1
NS(=O)(=O)c1ccc(NC(=O)Nc2ccc(F)cc2)cc1; 1

Enquiry: Given `O=C(Nc1cc(C(F)(F)F)ccc1N1CCCCC1)c1ccncc1` , state the outcome it received in this test.
Return: -1

Enquiry: Given `CCCN1CCC=C(c2cc(-c3ccc(C)cc3)no2)C1` , state the outcome it received in this test.
Return: 1

* * *

test: P-glycoprotein substrates identified in KB-8-5-11 adenocarcinoma cell line, qHTS therapeutic library screen (AID 1346987); settings: KB-8-5-11 (P-gp overexpressing) viability, CellTiter-Glo, 72 h; series mostly up to 44.5 µM; note: nearly all actives have a fitted effect of over 65% in size
Records with an inconclusive call do not appear. Calls of active or inactive are those of the source. The call rests on the fitted dose curve; in most records, active means well fitted inhibition curve with a large enough effect; inconclusive means small, poorly fitted or top-dose-only effect; inactive means flat fitted curve, though single readings scatter.
Respond with a class label; see 1 for active, -1 for inactive

CCC(C)C(=O)O[C@H]1[C@@H](OC(=O)c2ccoc2)C[C@](C)(O)[C@]23OC(C)(C)[C@H](C[C@H](OC(=O)c4ccoc4)[C@]12COC(C)=O)[C@H]3OC(C)=O (some centres not stated); -1
N[C@@H]1c2cccnc2[C@H](OC(=O)N2CCC(n3c(=O)[nH]c4ncccc43)CC2)CC[C@H]1c1cccc(F)c1F; -1
Cn1ncc(Cl)c1-c1cc(C(=O)N[C@H](CN)Cc2ccc(F)c(F)c2)oc1Cl; 1
CC(O)C(C)n1ncn(-c2ccc(N3CCN(c4ccc(OCC5COC(Cn6cncn6)(c6ccc(Cl)cc6Cl)O5)cc4)CC3)cc2)c1=O (configuration not stated); 1
COc1ccc([C@H]2Cc3cccc(O)c3C(=O)O2)cc1OC; -1
N#Cc1cc(-c2ccnc(Nc3ccc(N4CCOCC4)cc3)n2)ccc1OC1CCOCC1; 1

Enquiry: Given `O=C(Nc1ccc2[nH]nc(-c3ccncc3)c2c1)[C@@H]1CCN(CC(=O)N2CCN(c3ccc(-c4ncccn4)cc3)CC2)C1` , state the outcome it received in this test.
Return: -1

Enquiry: Given `c1ccc(-c2cnn3cc(-c4ccc(OCCN5CCOCC5)cc4)cnc23)cc1` , state the outcome it received in this test.
Return: 1

Enquiry: Given `CC(=O)Nc1cccc(-c2csc(Nc3cc(C)ccn3)n2)c1` , state the outcome it received in this test.
Return: -1

Enquiry: Given `CN(C)CCN(Cc1ccccc1)C(=O)c1cc(-c2ccc(F)cc2)n2nc(C(C)(C)C)cc2n1` , state the outcome it received in this test.
Return: 1

Enquiry: Given `CNc1nc(Nc2ccc(C(=O)N3CCOCC3)cc2OC)nc2[nH]cc(Cl)c12` , state the outcome it received in this test.
Return: 1

* * *

tested on: Zika virus NS2B-NS3 protease (unlinked complex); test: Primary screen GU Rhodamine qHTS for Zika virus inhibitors: Unlinked NS2B-NS3 protease assay (AID 1347159); settings: Recombinant ZIKV NS2B-NS3 protease, Rhodamine110 substrate fluorescence; series mostly up to 107 µM; note: nearly all actives have a fitted effect of over 60% in size
Records with an inconclusive call do not appear. Activity calls are given as the source filed them. Calls come from the whole dose curve; as a rule, active = well fitted inhibition curve with a large enough effect; inconclusive = small, poorly fitted or top-dose-only effect; inactive = no such curve, though single readings can be large or run the other way.
Respond with a class label; see 1 for active, 0 for inactive

A selection of reference data follows.
Fc1ccc(-c2nc(-c3c(F)cccc3F)[nH]c2-c2ccncc2)cc1; 0
C/C=C(\C)C(=O)O[C@H]1C=CC(=O)O[C@H]1/C=C/[C@@H](O)[C@H](C)O; 0

Enquiry: Given `Cc1cc(-c2cc(OC(=O)c3ccccc3)ccc2Cl)cc2nnc(Nc3ccc(OCCN4CCCC4)cc3)nc12` , state the outcome it received in this test.
Return: 0

Enquiry: Given `COc1ccc(C#Cc2ccc(C(=O)N3CCC[C@@H](O)C3)c(F)c2)cc1` , state the outcome it received in this test.
Return: 0

Enquiry: Given `O=S(=O)(Nc1cc(Cl)c(Oc2cnc3ccccc3c2)c(Cl)c1)c1ccc(Cl)cc1Cl` , state the outcome it received in this test.
Return: 1

* * *

test system: JEG-3; test: Primary qHTS to identify gynecologic anti-cancer compounds using libraries of approved drugs and bioactive compounds (AID 1345084); settings: Gynecologic cancer cell panel viability, ATPlite luminescence, 48 h; series mostly up to 57.5 µM; note: nearly all actives have a fitted effect of over 55% in size; note: potency is the fitted concentration of half-maximal effect
Results filed as inconclusive are left out. Calls of active or inactive are those of the source. Calls follow the shape of the dose curve; as a rule, active = well fitted cell-killing curve with a large enough effect; inconclusive = small, poorly fitted or top-dose-only effect, or effect the other way; inactive = flat fitted curve, though single readings scatter.
endpoint: Potency

Answered cases to consult:
CC(/C=C/C(=O)NO)=C\[C@@H](C)C(=O)c1ccc(N(C)C)cc1; 1.41 µM (active)
CCOC(=O)c1cnc2ccc(-c3cncc(NS(=O)(=O)c4ccccc4)c3)cn12; 7.08 µM (active)
Cn1c(=O)c2c(ncn2Cc2ccc(C(C)(C)C)cc2)n(C)c1=O; 14.1 µM (active)

Shift focus to the following entry.
Enquiry: # input molecule: `Cn1cc(-c2ccc(S(=O)(=O)n3ccc(/C=C/C(=O)Nc4ccccc4N)c3)cc2)cn1` ; wanted: its Potency
Return: 10 µM (active)

* * *

test: Drug repurposing screens with cells derived from glioblastoma tumor samples (AID 1345199); conditions: GBM patient neurospheres viability, ATP luminescence, 48 h; at 45.9 µM (top of the series); tumour line B; note: % is set by controls: 0 for no effect and ±100 for the full control effect; nearly all actives have a fitted effect of over 40% in size
Records with an inconclusive call do not appear.
endpoint: activity, negative = cell killing (%)
// note: answer is a bare numeric in %

CCCCCCCCCCCCCCCC(=O)OCCC1CCN(CCCN2c3ccccc3Sc3ccc(S(=O)(=O)N(C)C)cc32)CC1; -1.24

Shift focus to the following entry.
Enquiry: # input molecule: `CCCCCCCCCCCCCCCCCC(=O)[O][Al]` ; wanted: its activity, negative = cell killing
Return: -8.38

* * *

tested on: CRL-7250; experiment: Cytotoxic Profiling of Annotated Libraries Using Quantitative High-Throughput Screening (AID 1296008); details: Five cell lines viability, CellTiter-Glo ATP luminescence, 48-72 h; hits give low values; note: % is set by controls: 0 for no effect and ±100 for the full control effect; nearly all actives have a fitted effect of over 60% in size
Records with an inconclusive call do not appear.
endpoint: max response (%)
// note: answer is a bare numeric in %

COC(=O)CC[C@@H](C)C1CCC2C3CCC4C[C@H](OC(C)=O)CCC4(C)C3C[C@H](O)C21C (stereo partly drawn); -0.684
CS(=O)(=O)Nc1ccc2oc3c(OC(F)F)ccc(C(=O)Nc4c(Cl)cncc4Cl)c3c2c1; -13.5
CC(C)=CCC[C@](C)(O[C@@H]1O[C@H](CO[C@@H]2OC[C@@H](O)[C@H](O)[C@H]2O)[C@@H](O)[C@H](O)[C@H]1O)[C@H]1CC[C@]2(C)[C@@H]1[C@H](O)C[C@@H]1[C@@]3(C)CC[C@H](O[C@@H]4O[C@H](CO)[C@@H](O)[C@H](O)[C@H]4O)C(C)(C)[C@@H]3CC[C@]12C; -26.7

Enquiry: # input compound: CCC(C)C(=O)Oc1cc(C)ccc1C1(COC(=O)C(C)C)CO1 (stereo not drawn) ; wanted: its max response
Return: -0.891

Enquiry: # input compound: `COC(=O)c1ccc(N2CCN(C)CC2)c(NC(=O)c2cccc(OC)c2)c1` ; wanted: its max response
Return: -14.2

Enquiry: # input compound: `COc1cccc(NCCC2(c3ccccc3)CC(C)(C)OC(C)(C)C2)c1` ; wanted: its max response
Return: -3.59

Enquiry: # input compound: `Cc1ccccc1CN1CCn2c1nc1c(c2=O)CN(Cc2ccccc2)CC1` ; wanted: its max response
Return: 1.02

Enquiry: # input compound: O=C(OC1CN2CCC1CC2)N1CCc2ccccc2C1c1ccccc1 (stereo not drawn) ; wanted: its max response
Return: 0.185

Enquiry: # input compound: `CC(C)(O)c1ccn2c(-c3ccc(F)c(-c4ccc(F)cc4C#N)c3)cnc2c1F` ; wanted: its max response
Return: -19.9

Enquiry: # input compound: C=C1C(=O)O[C@@H]2/C=C(\CO)CC/C=C(\CO)[C@H](OC(C)=O)C(OC(=O)C(C)CC)C12 (stereo partly drawn) ; wanted: its max response
Return: -5.38

* * *

system: CAOV3; assay: Primary qHTS to identify gynecologic anti-cancer compounds using libraries of approved drugs and bioactive compounds (AID 1345084); conditions: Gynecologic cancer cell panel viability, ATPlite luminescence, 48 h; series mostly up to 57.5 µM; note: nearly all actives have a fitted effect of over 55% in size
Results filed as inconclusive are left out. Active and inactive are the calls of the source. Calls come from the whole dose curve; as a rule, active = well fitted cell-killing curve with a large enough effect; inconclusive = small, poorly fitted or top-dose-only effect, or effect the other way; inactive = flat fitted curve, though single readings scatter.
endpoint: outcome

Answered cases to consult:
Cc1cnn(-c2ccccc2)c1NC(=O)COCc1ccccc1; inactive
CCC(=O)N1CCOc2c(cc(-c3ccc(OC)c(OC)c3)cc2OC[C@H]2CCCN(C)C2)C1; inactive
Cc1ccccc1C(C(=O)NC1CCCCC1)N(C(=O)Cn1cnc2ccccc21)c1cccc(F)c1 (centres undefined); inactive
C=C[C@](C)(O)CC[C@H]1C(C)=CC(=O)[C@H]2C(C)(C)CCC[C@]12C; inactive
CC(OC1OCCN(Cc2n[nH]c(=O)[nH]2)C1c1ccc(F)cc1)c1cc(C(F)(F)F)cc(C(F)(F)F)c1 (centres undefined); inactive

Enquiry: # input molecule: `O=C(NCCN1CCC(n2c(=O)[nH]c3ccccc32)CC1)c1ccc2ccccc2c1` ; wanted: its outcome
Return: inactive

Enquiry: # input molecule: `COc1ccncc1C(=O)NC(=O)Nc1ccc(-c2ccccc2)c(C(F)(F)F)c1` ; wanted: its outcome
Return: inactive

Enquiry: # input molecule: `C[C@H](CN(C)C)Oc1nc(Nc2cc3cccc(Cl)c3cn2)cnc1C#N` ; wanted: its outcome
Return: inactive

Enquiry: # input molecule: `COCCCNC(=O)c1ccc(Cn2c(=O)c3ccccc3n(Cc3ccc(C(C)C)cc3)c2=O)cc1` ; wanted: its outcome
Return: inactive
